molecular target: biotinylated AviTag-BiP^19–413 (NBD), G3I8R9; assay: BLI; settings: chain shown with the change; 50 µM MANF; equilibrium signal; parent: est. 0.68; read off a plot
Sequence (G3I8R9 19-413): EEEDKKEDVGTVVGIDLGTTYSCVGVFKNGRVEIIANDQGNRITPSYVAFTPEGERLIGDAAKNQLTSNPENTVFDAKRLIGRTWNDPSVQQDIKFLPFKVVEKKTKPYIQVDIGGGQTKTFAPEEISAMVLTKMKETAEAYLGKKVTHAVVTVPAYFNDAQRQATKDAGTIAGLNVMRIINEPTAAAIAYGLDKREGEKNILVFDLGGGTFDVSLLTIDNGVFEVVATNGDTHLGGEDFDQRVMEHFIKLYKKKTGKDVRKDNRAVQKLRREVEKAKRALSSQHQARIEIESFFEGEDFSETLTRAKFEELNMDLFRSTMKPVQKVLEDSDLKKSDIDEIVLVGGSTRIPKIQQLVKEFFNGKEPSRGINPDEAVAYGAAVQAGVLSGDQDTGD
reportedMetric: response (nm)
Supply the numeric figure in nm, leaving out any unit text.

Here is how some binders turned out for response.
binder	response / nm
Full-length mouse MANF (wild-type), Q9CXI5 R133E (protein) LRPGDCEVCISYLGRFYQDLKDRDVTFSPATIEEELIKFCREARGKENRLCYYIGATDDAATKIINEVSKPLAHHIPVEKICEKLKKKDSQICELKYDKQIDLSTVDLKKLEVKELKKILDDWGEMCKGCAEKSDYIRKINELMPKYAPKAASARTDL	0.1
Full-length mouse MANF (wild-type), Q9CXI5 R23A (protein) LAPGDCEVCISYLGRFYQDLKDRDVTFSPATIEEELIKFCREARGKENRLCYYIGATDDAATKIINEVSKPLAHHIPVEKICEKLKKKDSQICELKYDNQIDLSTVDLKKLRVKELKKILDDWGEMCKGCAEKSDYIRKINELMPKYAPKAASARTDL	0.52
Full-length mouse MANF (wild-type), Q9CXI5 K138A (protein) LRPGDCEVCISYLGRFYQDLKDRDVTFSPATIEEELIKFCREARGKENRLCYYIGATDDAATKIINEVSKPLAHHIPVEKICEKLKKKDSQICELKYDNQIDLSTVDLKKLRVKELAKILDDWGEMCKGCAEKSDYIRKINELMPKYAPKAASARTDL	0.3

Consider the binder Full-length mouse MANF (wild-type), Q9CXI5 E153A (protein) LRPGDCEVCISYLGRFYQDLKDRDVTFSPATIEEELIKFCREARGKENRLCYYIGATDDAATKIINEVSKPLAHHIPVEKICEKLKKKDSQICELKYDKQIDLSTVDLKKLRVKELKKILDDWGEMCKGCAAKSDYIRKINELMPKYAPKAASARTDL . State its measured response.
0.17
